molecular target: T1, recombinant human GM-CSF (human, UniProt P04141 18-144); experiment: ELISA on coated rhGM-CSF, UBA relative to 1D2
T1 construct: also called rhGM-CSF; CSF2
T1 sequence (P04141 18-144 limits assumed): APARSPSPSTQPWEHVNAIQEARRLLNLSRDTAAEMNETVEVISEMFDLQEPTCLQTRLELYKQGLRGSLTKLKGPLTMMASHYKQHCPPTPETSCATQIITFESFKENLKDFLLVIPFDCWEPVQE
# if measured binding affinity % of 1D2 < 80%: t  # else: f

Reference set, count: 8
1D2 SDR mutant HK54E (antibody, IgG1, V domains shown, also called X3 E) VH: QVQLVQSGAEVKKPGASVKVSCEASGYTFTDKYLHWVRQAPGQGLEWMAWINPESGGTFYAQNFKGRVTVTRDTSINTAYLELTSLRLDDTSTYYCARGRDYYDQGAADLWGQGTMVTVSS VL: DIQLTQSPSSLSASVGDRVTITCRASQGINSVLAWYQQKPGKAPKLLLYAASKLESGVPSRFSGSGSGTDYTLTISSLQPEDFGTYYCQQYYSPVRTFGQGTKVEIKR ... f
1D2 SDR mutant LV32H (antibody, IgG1, V domains shown, also called X8 H) VH: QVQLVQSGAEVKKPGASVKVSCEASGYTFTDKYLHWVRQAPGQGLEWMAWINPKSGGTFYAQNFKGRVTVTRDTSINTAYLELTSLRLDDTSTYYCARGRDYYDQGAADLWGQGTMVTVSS VL: DIQLTQSPSSLSASVGDRVTITCRASQGINSHLAWYQQKPGKAPKLLLYAASKLESGVPSRFSGSGSGTDYTLTISSLQPEDFGTYYCQQYYSPVRTFGQGTKVEIKR ... f
1D2 SDR mutant HR100M (antibody, IgG1, V domains shown, also called X4 M) VH: QVQLVQSGAEVKKPGASVKVSCEASGYTFTDKYLHWVRQAPGQGLEWMAWINPKSGGTFYAQNFKGRVTVTRDTSINTAYLELTSLRLDDTSTYYCARGMDYYDQGAADLWGQGTMVTVSS VL: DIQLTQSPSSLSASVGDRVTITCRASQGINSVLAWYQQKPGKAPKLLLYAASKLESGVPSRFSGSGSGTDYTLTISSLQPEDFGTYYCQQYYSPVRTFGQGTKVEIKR ... f
1D2 SDR mutant HD31Q (antibody, IgG1, V domains shown, also called X1 Q) VH: QVQLVQSGAEVKKPGASVKVSCEASGYTFTQKYLHWVRQAPGQGLEWMAWINPKSGGTFYAQNFKGRVTVTRDTSINTAYLELTSLRLDDTSTYYCARGRDYYDQGAADLWGQGTMVTVSS VL: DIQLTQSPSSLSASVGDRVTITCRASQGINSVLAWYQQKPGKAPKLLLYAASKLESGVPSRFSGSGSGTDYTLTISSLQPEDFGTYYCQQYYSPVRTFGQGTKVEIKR ... t
1D2 SDR mutant HY103S (antibody, IgG1, V domains shown, also called X6 S) VH: QVQLVQSGAEVKKPGASVKVSCEASGYTFTDKYLHWVRQAPGQGLEWMAWINPKSGGTFYAQNFKGRVTVTRDTSINTAYLELTSLRLDDTSTYYCARGRDYSDQGAADLWGQGTMVTVSS VL: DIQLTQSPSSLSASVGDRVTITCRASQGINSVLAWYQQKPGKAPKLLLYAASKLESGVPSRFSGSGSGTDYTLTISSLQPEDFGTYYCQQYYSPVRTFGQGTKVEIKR ... f
1D2 SDR mutant HK54H (antibody, IgG1, V domains shown, also called X3 H) VH: QVQLVQSGAEVKKPGASVKVSCEASGYTFTDKYLHWVRQAPGQGLEWMAWINPHSGGTFYAQNFKGRVTVTRDTSINTAYLELTSLRLDDTSTYYCARGRDYYDQGAADLWGQGTMVTVSS VL: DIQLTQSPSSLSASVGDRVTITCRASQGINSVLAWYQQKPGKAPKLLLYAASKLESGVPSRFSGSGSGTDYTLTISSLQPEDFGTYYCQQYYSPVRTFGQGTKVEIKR ... t
1D2 SDR mutant LV32L (antibody, IgG1, V domains shown, also called X8 L) VH: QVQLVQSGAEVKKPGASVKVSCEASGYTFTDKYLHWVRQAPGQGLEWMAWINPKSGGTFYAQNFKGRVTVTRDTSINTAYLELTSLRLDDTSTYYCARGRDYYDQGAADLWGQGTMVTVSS VL: DIQLTQSPSSLSASVGDRVTITCRASQGINSLLAWYQQKPGKAPKLLLYAASKLESGVPSRFSGSGSGTDYTLTISSLQPEDFGTYYCQQYYSPVRTFGQGTKVEIKR ... f
1D2 SDR mutant HY103N (antibody, IgG1, V domains shown, also called X6 N) VH: QVQLVQSGAEVKKPGASVKVSCEASGYTFTDKYLHWVRQAPGQGLEWMAWINPKSGGTFYAQNFKGRVTVTRDTSINTAYLELTSLRLDDTSTYYCARGRDYNDQGAADLWGQGTMVTVSS VL: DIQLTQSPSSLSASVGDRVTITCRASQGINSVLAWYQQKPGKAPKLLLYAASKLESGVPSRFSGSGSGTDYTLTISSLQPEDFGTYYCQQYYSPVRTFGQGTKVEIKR ... f

Continue with the next binder.
(Q) Given 1D2 SDR mutant HK32T (antibody, IgG1, V domains shown, also called X2 T) VH: QVQLVQSGAEVKKPGASVKVSCEASGYTFTDTYLHWVRQAPGQGLEWMAWINPKSGGTFYAQNFKGRVTVTRDTSINTAYLELTSLRLDDTSTYYCARGRDYYDQGAADLWGQGTMVTVSS VL: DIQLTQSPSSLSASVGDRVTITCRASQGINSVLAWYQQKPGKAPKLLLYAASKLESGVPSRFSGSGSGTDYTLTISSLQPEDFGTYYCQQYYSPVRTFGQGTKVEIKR , is recorded binding affinity % of 1D2 strictly lower than 80%?
(A) t

Where do these numbers come from? They come from patent US20210309732A1.
